Entry source: PubChem BioAssay AID2060912

System: HUVEC/MSC spheroids viability
test protocol: Human HUVEC/MSC cell line growth inhibition [KRAS2];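 also: percent of DMSO vehicle control luminescence so 100% = untreated viability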
measurement setup: second compound 0.0316 µM; first compound 0.01 µM; hits give low values
metric name: viability, T/C (%)
// note: answer is a bare numeric in %

Previously resolved entries follow.
[in] Which value of viability, T/C has been reported for Cn1ncnc1[C@H]1c2n[nH]c(=O)c3cc(F)cc(c23)N[C@@H]1c1ccc(F)cc1 + COc1cc2nc(C)nc(NC(C)c3cc(N)cc(C(F)(F)F)c3)c2cc1OC1CCOC1 in the records?
[out] 89.7

[in] Queued: CC(C)n1nc(-c2ccc3oc(N)nc3c2)c2c(N)ncnc21 + C=CC(=O)N1CCN(c2nc(=O)n(-c3c(C)ccnc3C(C)C)c3nc(-c4c(O)cccc4F)c(F)cc23)C(C)C1
[out] 49.7

[in] Moving on to the next compound: Cn1ncnc1[C@H]1c2n[nH]c(=O)c3cc(F)cc(c23)N[C@@H]1c1ccc(F)cc1 + CNCc1ccccc1-c1csc(C(C)Nc2nc(C)nc3cc(OC)c(OC)cc23)c1
[out] 73.2

[in] Next: Cn1ncnc1[C@H]1c2n[nH]c(=O)c3cc(F)cc(c23)N[C@@H]1c1ccc(F)cc1 + C=CC(=O)N1CCN(c2nc(=O)n(-c3c(C)ccnc3C(C)C)c3nc(-c4c(O)cccc4F)c(F)cc23)C(C)C1
[out] 94.3

Switching to the query record.
[in] viability, T/C lookup needed for Cn1ncnc1[C@H]1c2n[nH]c(=O)c3cc(F)cc(c23)N[C@@H]1c1ccc(F)cc1 + CC1OCC2(CCN(c3cnc(Sc4ccnc(N)c4Cl)c(N)n3)CC2)C1N , thanks.
[out] 86.9

* * *

Test system: HUVEC/MSC spheroids viability
test protocol: Human HUVEC/MSC cell line growth inhibition [KRAS2];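 also: percent of DMSO vehicle control luminescence so 100% = untreated viability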
measurement setup: second compound 3.16 µM; first compound 10 µM; hits give low values
viability, T/C listing for selected compounds.

[in] Could you share which viability, T/C value was measured for CCNC(=O)CC1N=C(c2ccc(Cl)cc2)c2cc(OC)ccc2-n2c(C)nnc21 (configuration not stated) + C=CC(=O)N1CCN(c2nc(=O)n(-c3c(C)ccnc3C(C)C)c3nc(-c4c(O)cccc4F)c(F)cc23)C(C)C1 ?
[out] 207%

More entries:
[in] Which value of viability, T/C has been reported for COC(=O)c1ccc2c(C(=Nc3ccc(N(C)C(=O)CN4CCN(C)CC4)cc3)c3ccccc3)c(O)[nH]c2c1 + COc1cc2nc(C)nc(NC(C)c3cc(N)cc(C(F)(F)F)c3)c2cc1OC1CCOC1 in the records?
[out] 0.29%

[in] Moving on to the next compound: CC1(C)CCC(CN2CCN(c3ccc(C(=O)NS(=O)(=O)c4ccc(NCC5CCOCC5)c([N+](=O)[O-])c4)c(Oc4cnc5[nH]ccc5c4)c3)CC2)=C(c2ccc(Cl)cc2)C1 + CNCc1ccccc1-c1csc(C(C)Nc2nc(C)nc3cc(OC)c(OC)cc23)c1
[out] 0.31%

[in] Lookup COc1cc2nccc(Oc3ccc(NC(=O)C4(C(=O)Nc5ccc(F)cc5)CC4)cc3)c2cc1OC + CC1OCC2(CCN(c3cnc(Sc4ccnc(N)c4Cl)c(N)n3)CC2)C1N
[out] 5.57%

[in] Another compound: COC(=O)c1ccc2c(C(=Nc3ccc(N(C)C(=O)CN4CCN(C)CC4)cc3)c3ccccc3)c(O)[nH]c2c1 + CNCc1ccccc1-c1csc(C(C)Nc2nc(C)nc3cc(OC)c(OC)cc23)c1
[out] 0.27%

[in] Next entry: COc1cc(Nc2ncc3c(n2)-c2ccc(Cl)cc2C(c2c(F)cccc2OC)=NC3)ccc1C(=O)O + CNCc1ccccc1-c1csc(C(C)Nc2nc(C)nc3cc(OC)c(OC)cc23)c1
[out] 50.7%

[in] // query: CC(C)NCC(C(=O)N1CCN(c2ncnc3c2C(C)CC3O)CC1)c1ccc(Cl)cc1 (configuration not stated) + CC1OCC2(CCN(c3cnc(Sc4ccnc(N)c4Cl)c(N)n3)CC2)C1N
[out] 21%
